System: UO-31 renal
assay: NCI tumour cell line growth inhibition, 48 h
measurement.kind: GI50

Here's what some known entries look like.
For reference, reported GI50 for COc1ccc(C2CC(c3cccc(Nc4ccncc4)c3)=NN2c2ccc(Cl)cc2)cc1 (configuration not stated) stands at 1.2 µM

Briefly, GI50 measured for Cc1cc(NCCCNc2ccnc3cc(Cl)ccc23)nc(N2CCN(C)CC2)n1 : 4.05 µM

Measured GI50, Cn1cc(C2=C(c3cn(CCO)c4ccccc34)C(=O)NC2=O)c2ccccc21 : 3.2 µM

Briefly, GI50 measured for CC(C)Nc1ccc(Nc2ccccc2)cc1 : 14.1 µM

Reported GI50 of CCOc1ccccc1NC(=O)c1cc2ccccc2cc1O : 2.81 µM

Okay, here is my list. What is GI50 for each of these?
1. Oc1ccc(CN2CCC(N3CCOCC3)CC2)c2cccnc12
2. O=c1c2c3c(sc2n2c(-c4cc(-c5ccccc5)no4)nnc2n1Cc1ccccc1)CCCC3

["14.7 µM", "27.1 µM"]

----------
Below are GI50 values measured for U251 CNS.

The compound CN(Cc1ccc(Cl)cc1)c1ccc(CO)c(Cl)c1 on U251 CNS: GI50 was 3.01 µM

Tested on U251 CNS, the item Cc1ccc2c(c1)c1nc3cc(C)c(C)cc3nc1n2CCN(C)C showed GI50 equal to 2.3 µM

Param item: COc1cc(C(=O)N2N=C(c3ccc(S(C)(=O)=O)cc3)CC2c2ccco2)cc(OC)c1OC (stereo unspecified) ; param system: U251 CNS; output GI50: 5.09 µM

Readout GI50 for N=C(N)c1ccc(OCCOCCOc2ccc(C(=N)N)cc2)cc1 , test system U251 CNS, was 77.6 µM

With U251 CNS as the test system, O=c1cc(-c2ccccc2)oc2cc(O)c(O)c(O)c12 showed GI50 of 11.1 µM

Below: the item to evaluate.
Let me check: Nc1ccccc1-c1ccc([N+](=O)[O-])cc1 , system U251 CNS, measured GI50 is 40.7 µM

----------
System: HOP-92 NSCLC
assay: NCI tumour cell line growth inhibition, 48 h
If the reported TGI equals or exceeds 30 µM, assign class 1. If not, assign class 0.

Can N#CC(c1nc2ccccc2s1)c1ncnc(Cl)c1[N+](=O)[O-] (stereo unspecified) be said to have TGI at or above 30 µM?
class 1

Given C/C=C/C1=C(Cl)C(=O)[C@@H](Cl)[C@@]1(O)C(=O)OC , state whether its TGI is at least 30 µM.
class 0

Exam item: decide whether the reported TGI for S=C1Cc2c(-c3ccc(Cl)cc3)cc(-c3ccccc3)nc2-c2ccccc2N1 is at least 30 µM.
class 0

Determine whether measured TGI meets or exceeds 30 µM for CN(C)CCN(C)CC1COC(C)(C)O1 (stereo unspecified)
class 1

Does the reported TGI for CC(=O)Nc1ccc2c3c(cc(O)c2c1)N(C(=O)CCCCCC(=O)N1CC(CCl)c2c1cc(O)c1cc(NC(C)=O)ccc21)CC3CCl (stereo unspecified) fall at or above the 30 µM mark?
class 0

---
Check the entry COc1ccc(/C=C2\C(=O)N(C)C(=O)c3cc(OC)c(OC)cc32)cc1OC : does TGI equal or exceed 30 µM?
class 1

Quick check, TGI >= 30 µM? Cc1cc(NCCCNc2ccnc3cc(Cl)ccc23)nc(N2CCN(C)CC2)n1
class 1
